test.details: qHTS assay to identify aromatase inhibitors - cell viability counter screen (AID 743084);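 also: cells stimulated with testosterone during compound exposure; nearly all actives have a fitted effect of over 55% in size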
measurement.parameters: MCF-7 aro ERE viability, CellTiter-Fluor, 24 h; series mostly up to 70.3 µM
Results filed as inconclusive are left out. Activity calls are given as the source filed them. Calls follow the shape of the dose curve; as a rule, active = well fitted cell-killing curve with a large enough effect in the repeat runs; inconclusive = weak or mixed curves, or effect the other way; inactive = no such curve, though single readings can be large or run the other way.
Tick one outcome: 1 for active, -1 for inactive

Solved cases below.
1) N#CCCN(CCO)CCO | -1
2) CN1C(=O)c2ccccc2C1=O | -1
3) CC(=O)NC1(c2cccc(F)c2)CCN(CC[C@@]2(c3ccc(Cl)c(Cl)c3)CN(c3ccccc3)C(=O)CO2)CC1 | 1
4) CN1C[C@H](C(=O)N[C@]2(C)O[C@@]3(O)[C@@H]4CCCN4C(=O)[C@H](Cc4ccccc4)N3C2=O)C[C@@H]2c3cccc4[nH]cc(c34)C[C@H]21 | -1

Consider the additional molecule presented here.
Input line: For this molecule, state the assay outcome: C/C=C(/C(=C/C)c1ccc(O)cc1)c1ccc(O)cc1
Output line: -1
